Below, each entry is listed with its recorded Response.
species on record: Rattus norvegicus; test: The Magnitude of the peak current produced by 1 uM GABA plus 1 uM compound was normalized with respect to the peak current produced by 1 uM GABA alone on the same cell.; type: functional
Recorded Metric: Response (%)

{"Compound": "C[C@]12CCC3C[C@@H](CCO)CCC3C1CCC2=O (stereo not given in full)", "Readout Value": 197}
{"Compound": "C[C@]12CC[C@@H]3C4CC[C@@H](O)C[C@@H]4CC[C@H]3[C@@H]1CC[C@H]2C#N (stereo not given in full)", "Readout Value": 514}
{"Compound": "C[C@]12CCC3C[C@H](CCO)CCC3C1CC[C@@H]2C#N (stereo not given in full)", "Readout Value": 346}
{"Compound": "CC(C)(C)O[C@H]1CCC2C3CC[C@H](CCO)CC3CC[C@@]21C (stereo not given in full)", "Readout Value": 114}
{"Compound": "C[C@]12CCC3C[C@@H](CCO)CCC3C1CC[C@@H]2C#N (stereo not given in full)", "Readout Value": 497}

* * *

organism: Rattus norvegicus; experiment: The Magnitude of the peak current produced by 1 uM GABA plus 1 uM compound was normalized with respect to the peak current produced by 1 uM GABA alone on the same cell.; type: functional
Outcome: 1 for Response of at least 400%; 0 for anything lower.

{"Compound": "C[C@]12CCC3C[C@@H](CCO)CCC3C1CC[C@@H]2O (some centres not stated)", "Class Name": 0}
{"Compound": "C[C@]12CC[C@@H]3C4CC[C@@H](O)C[C@H]4CC[C@H]3[C@@H]1CC[C@H]2C#N (some centres not stated)", "Class Name": 1}
{"Compound": "CC(=O)[C@@H]1CC[C@H]2[C@@H]3CC[C@H]4C[C@H](O)CCC4[C@H]3CC[C@]12C (some centres not stated)", "Class Name": 1}
{"Compound": "CC(=O)[C@@H]1CC[C@H]2[C@@H]3CC[C@@H]4C[C@H](O)CCC4[C@H]3CC[C@]12C (some centres not stated)", "Class Name": 1}
{"Compound": "C[C@]12CCC3C[C@@H](CCO)CCC3C1CCC2C#N (some centres not stated)", "Class Name": 0}
{"Compound": "CC(=O)[C@H]1CCC2C3CC[C@H](CCO)CC3CC[C@@]21C (some centres not stated)", "Class Name": 0}
{"Compound": "CC(=O)C1CCC2C3CC[C@H](CCO)CC3CC[C@]12C (some centres not stated)", "Class Name": 0}

* * *

Below, each entry is listed with its recorded Effect.
species: Rattus norvegicus; assay: The compound gated current reflects the peak current directly gated by 10 uM compound in the absence of GABA compared to the response obtained from the same cell in response to 1 uM GABA alone.; assay type: functional
Recorded Metric: Effect

{"Molecule": "C[C@]12CC[C@@H]3C4CC[C@@H](O)C[C@@H]4CC[C@H]3[C@@H]1CC[C@H]2C#N (some centres not stated)", "Readout Value": 166}
{"Molecule": "C[C@]12CC[C@@H]3C4CC[C@@H](O)C[C@H]4CC[C@H]3[C@@H]1CC[C@H]2C#N (some centres not stated)", "Readout Value": 49}
{"Molecule": "CC(=O)[C@@H]1CC[C@H]2[C@@H]3CC[C@H]4C[C@H](O)CCC4[C@H]3CC[C@]12C (some centres not stated)", "Readout Value": 144}
{"Molecule": "CC(=O)[C@@H]1CC[C@H]2[C@@H]3CC[C@@H]4C[C@H](O)CCC4[C@H]3CC[C@]12C (some centres not stated)", "Readout Value": 30}
{"Molecule": "CC(=O)[C@H]1CCC2C3CC[C@H](CCO)CC3CC[C@@]21C (some centres not stated)", "Readout Value": 113}
{"Molecule": "C[C@]12CCC3C[C@@H](CCO)CCC3C1CC[C@@H]2C#N (some centres not stated)", "Readout Value": 115}
{"Molecule": "CC(=O)C1CCC2C3CC[C@H](CCO)CC3CC[C@]12C (some centres not stated)", "Readout Value": 43}
